All values here come from patent US10222368B2.

tested_on: mu opiate receptor (MOR) (Rattus norvegicus, UniProt P33535)
Construct: from tissue; host or cells: striatal tissue (membrane preparation)
Sequence (P33535 whole entry): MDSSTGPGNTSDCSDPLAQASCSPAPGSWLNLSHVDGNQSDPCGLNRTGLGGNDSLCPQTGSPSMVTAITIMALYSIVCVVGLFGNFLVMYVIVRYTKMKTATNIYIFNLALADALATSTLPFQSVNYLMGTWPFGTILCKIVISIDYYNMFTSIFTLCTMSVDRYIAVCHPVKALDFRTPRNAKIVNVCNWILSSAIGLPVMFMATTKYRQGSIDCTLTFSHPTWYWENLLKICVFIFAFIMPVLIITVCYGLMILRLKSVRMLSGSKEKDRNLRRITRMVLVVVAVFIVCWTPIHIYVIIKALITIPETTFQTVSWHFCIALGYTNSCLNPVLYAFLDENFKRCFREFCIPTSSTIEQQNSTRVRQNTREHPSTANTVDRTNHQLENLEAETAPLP
experiment_notes: MOR agonist activity using [35S]GTPγS binding assay in striatal membranes
Format: biochemical
run_conditions: 1 μM compound + 1 μM β-FNA (MOR antagonist); striatal membranes
Experimental: To assess the mu opiate receptor (MOR) agonist activity of positive compounds from the FLNA screening, compounds were tested in a [^35S]GTPγS binding assay using striatal membranes. […] The immunocomplexes so formed were collected by incubation at 25° C. for 30 minutes with 40 μl of agarose-conjugated protein A/G beads and centrifugation at 5,000×g at 4° C. for 5 minutes. […] The radioactivity in the suspension was determined by liquid scintillation spectrometry.
Listed here are compounds together with their documented MOR agonist activity, [35S]GTPγS binding, 1 μM + BFNA.
Please respond with the number in % and leave the unit unwritten.

{"columns": ["compound", "measured_result"],
 "data": [
  ["O=C1CNC2(CCNCC2)N1Cc1ccccc1 [Compound C0114M]", 35.9],
  ["CC(=O)c1ccc(S(=O)(=O)N2CCC3(CC2)OCCN3S(=O)(=O)c2ccc(C(C)=O)cc2)cc1", 19.0]
]}

Give the value of MOR agonist activity, [35S]GTPγS binding, 1 μM + BFNA reported for the following: CC(=O)c1ccc(S(=O)(=O)N2CC(CN(C)C)OC23CCN(C)CC3)cc1 (stereo not shown) [Compound C0108M]
76.9

Retrieve MOR agonist activity, [35S]GTPγS binding, 1 μM + BFNA measured for "CC(=O)c1ccc(S(=O)(=O)N2CCC3(CC2)OCCN3S(C)(=O)=O)cc1" and print it.
86.3
